Data provenance is ChEMBL document CHEMBL1155111.

# protocolNotes: Tmax in rat at 30 mg/kg, po
# Assay type: ADME, organism-based
# Set-up: dose 30 mg/kg, route oral
# testSettings: in vivo
measureName: Tmax
I'd appreciate it if you included the unit after the number.

// Tmax lookup, molecule = c1ccc2oc(Oc3ccc(OCCN4CCCCC4)cc3)nc2c1 , result: 4.6 h

* * *

# protocolNotes: Tmax in rat at 10 mg/kg, po
# Format: ADME, organism-based
# Design: dose 10 mg/kg, route oral
# testSettings: in vivo
measureName: Tmax (h)
All answers are understood in h, so give the number only.

// Tmax lookup, molecule = O=C(CO)NC1CCN(Cc2ccc(Oc3nc4ccccc4s3)cc2)CC1 , result: 5.3

* * *

# protocolNotes: Half life in Beagle dog plasma at 2 mg/kg, iv
# Assay type: ADME, organism-based, Canis lupus familiaris
# Set-up: dose 2 mg/kg, route intravenous
measureName: half-life (h)
All answers are understood in h, so give the number only.

// half-life lookup, compound = O=C(CO)NC1CCN(Cc2ccc(Oc3nc4ccccc4s3)cc2)CC1 , result: 3.6

* * *

# protocolNotes: AUC (0 to infinity) in Beagle dog at 2 mg/kg, iv
# Assay type: ADME, organism-based, Canis lupus familiaris
# Design: time infinity, dose 2 mg/kg, route intravenous
# testSettings: plasma
measureName: AUC(0-inf) (µM·h)
All answers are understood in µM·h, so give the number only.

// AUC(0-inf) lookup, compound = O=C(CO)NC1CCN(Cc2ccc(Oc3nc4ccccc4s3)cc2)CC1 , result: 8

* * *

# protocolNotes: Chemical stability assessed as half life of hydrolysis at pH 7.4
# Assay type: physicochemical
# testSettings: buffer
measureName: half-life

// half-life lookup, compound = c1ccc2oc(Oc3ccc(OCCN4CCCCC4)cc3)nc2c1 , result: > 16.7 h

* * *

# protocolNotes: Metabolic stability in rat liver S9 fraction assessed as elimination half life
# Format: ADME, subcellular
measureName: half-life

// half-life lookup, compound = c1ccc2oc(Oc3ccc(OCCN4CCCCC4)cc3)nc2c1 , result: > 1.67 h

* * *

# protocolNotes: Volume of distribution at steady state in Beagle dog at 2 mg/kg, iv
# Type: ADME, organism-based, Canis lupus familiaris
# Design: dose 2 mg/kg, route intravenous
# testSettings: in vivo, read-out: Vdss
measureName: Vd (L/kg)
All answers are understood in L/kg, so give the number only.

// Vd lookup, compound = O=C(CO)NC1CCN(Cc2ccc(Oc3nc4ccccc4s3)cc2)CC1 , result: 3.2

* * *

# protocolNotes: Clearance in rat at 2 mg/kg, iv
# Format: ADME, organism-based
# Parameters: dose 2 mg/kg, route intravenous
# testSettings: in vivo
measureName: clearance (mL/min)
All answers are understood in mL/min, so give the number only.

// clearance lookup, molecule = O=C(CO)NC1CCN(Cc2ccc(Oc3nc4ccccc4s3)cc2)CC1 , result: 3

* * *

# protocolNotes: Cmax in Beagle dog at 10 mg/kg, po
# Assay type: ADME, organism-based, Canis lupus familiaris
# Parameters: dose 10 mg/kg, route oral
# testSettings: in vivo
measureName: Cmax (µM)
All answers are understood in µM, so give the number only.

// Cmax lookup, compound = O=C(CO)NC1CCN(Cc2ccc(Oc3nc4ccccc4s3)cc2)CC1 , result: 26

* * *

# protocolNotes: Half life in Beagle dog plasma at 10 mg/kg, po
# Type: ADME, organism-based, Canis lupus familiaris
# Design: dose 10 mg/kg, route oral
measureName: half-life (h)
All answers are understood in h, so give the number only.

// half-life lookup, compound = O=C(CO)NC1CCN(Cc2ccc(Oc3nc4ccccc4s3)cc2)CC1 , result: 6.9

* * *

# protocolNotes: Solubility at pH 7.4
# Assay type: physicochemical
# testSettings: buffer
measureName: solubility (µg/mL)
All answers are understood in µg/mL, so give the number only.

// solubility lookup, molecule = c1ccc2oc(Oc3ccc(OCCN4CCCCC4)cc3)nc2c1 , result: 160

* * *

# protocolNotes: Volume of distribution at steady state in Beagle dog at 3 mg/kg, iv
# Type: ADME, organism-based, Canis lupus familiaris
# Design: dose 3 mg/kg, route intravenous
# testSettings: in vivo, read-out: Vdss
measureName: Vd
I'd appreciate it if you included the unit after the number.

// Vd lookup, compound = c1ccc2oc(Oc3ccc(OCCN4CCCCC4)cc3)nc2c1 , result: 3.2 L/kg

* * *

# protocolNotes: Metabolic stability in mouse liver S9 fraction assessed as elimination half life
# Assay type: ADME, subcellular
measureName: half-life

// half-life lookup, compound = c1ccc2oc(Oc3ccc(OCCN4CCCCC4)cc3)nc2c1 , result: 40 min

* * *

# protocolNotes: AUC (0 to infinity) in rat at 30 mg/kg, po
# Format: ADME, organism-based
# Set-up: time infinity, dose 30 mg/kg, route oral
# testSettings: plasma
measureName: AUC(0-inf) (µM·h)
All answers are understood in µM·h, so give the number only.

// AUC(0-inf) lookup, molecule = c1ccc2oc(Oc3ccc(OCCN4CCCCC4)cc3)nc2c1 , result: 15

* * *

# protocolNotes: Chemical stability assessed as half life of hydrolysis at pH 2
# Assay type: physicochemical
# testSettings: buffer
measureName: half-life (h)
All answers are understood in h, so give the number only.

// half-life lookup, compound = c1ccc2oc(Oc3ccc(OCCN4CCCCC4)cc3)nc2c1 , result: 1.5

* * *

# protocolNotes: Clearance in rat at 3 mg/kg, iv
# Format: ADME, organism-based
# Set-up: dose 3 mg/kg, route intravenous
# testSettings: in vivo
measureName: clearance

// clearance lookup, compound = c1ccc2oc(Oc3ccc(OCCN4CCCCC4)cc3)nc2c1 , result: 9.5 mL/min

* * *

# protocolNotes: Metabolic stability in dog liver S9 fraction assessed as elimination half life
# Assay type: ADME, subcellular, Canis lupus familiaris
measureName: half-life (min)
All answers are understood in min, so give the number only.

// half-life lookup, molecule = c1ccc2oc(Oc3ccc(OCCN4CCCCC4)cc3)nc2c1 , result: 54

* * *

# protocolNotes: Metabolic stability in human liver microsomes assessed as elimination half life
# Type: ADME, Microsome
measureName: half-life

// half-life lookup, compound = c1ccc2oc(Oc3ccc(OCCN4CCCCC4)cc3)nc2c1 , result: > 1.67 h
